target: MKK4 (Homo sapiens); construct: S84/D399; host or cells: HEK-293; assay: KINOMEscan competition binding assay, MKK4; details: residual percent of control binding (PoC) at 100 nM
Sequence (P45985 84-399): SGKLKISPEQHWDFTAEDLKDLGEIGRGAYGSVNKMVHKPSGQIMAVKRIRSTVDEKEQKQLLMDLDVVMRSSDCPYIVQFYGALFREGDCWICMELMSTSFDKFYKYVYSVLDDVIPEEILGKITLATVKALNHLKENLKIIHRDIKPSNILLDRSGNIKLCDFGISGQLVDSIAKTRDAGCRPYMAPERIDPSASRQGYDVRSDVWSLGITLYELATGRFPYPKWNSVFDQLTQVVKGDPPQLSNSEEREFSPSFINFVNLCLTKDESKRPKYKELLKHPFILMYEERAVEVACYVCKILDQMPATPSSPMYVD

- compound: "CCCS(=O)(=O)Nc1ccc(F)c(C(=O)c2c[nH]c3ncc(-c4ccc(N5CCN(C(C)=O)CC5)cc4)cc23)c1F [Example 24]"
  MKK4 [% Ctrl @ 100 nM: "+ (3 ≤ PoC < 30)"
- compound: "CCCS(=O)(=O)Nc1ccc(F)c(C(=O)c2c[nH]c3ncc(-c4csc(SC)n4)cc23)c1F [Example 87]"
  MKK4 [% Ctrl @ 100 nM: "◯ (30 ≤ PoC)"
- compound: "O=C(c1ccc(F)c(NS(=O)(=O)CCC(F)(F)F)c1F)c1c[nH]c2ncc(-c3cnc(N4CCCCC4)nc3)cc12 [Example 181]"
  MKK4 [% Ctrl @ 100 nM: "+++ (PoC < 1)"
- compound: "CCCS(=O)(=O)Nc1cccc(C(=O)c2c[nH]c3ncc(-c4ccc(Cl)cc4)cc23)c1C#N [Example 63]"
  MKK4 [% Ctrl @ 100 nM: "◯ (30 ≤ PoC)"
- compound: "CN(C)c1ncc(-c2cnc3[nH]cc(C(=O)c4ccc(F)c(NS(=O)(=O)CCC(F)(F)F)c4F)c3c2)cn1 [Example 178]"
  MKK4 [% Ctrl @ 100 nM: "+++ (PoC < 1)"
- compound: "CCCS(=O)(=O)Nc1ccc(F)c(C(=O)c2c[nH]c3ncc(-c4ccc(OCC5COC(C)(C)O5)cc4)cc23)c1F (stereo not shown) [Example 29]"
  MKK4 [% Ctrl @ 100 nM: "+ (3 ≤ PoC < 30)"
- compound: "CCCS(=O)(=O)Nc1ccc(F)c(C(=O)c2c[nH]c3ncc(-c4cccc(OC)c4)cc23)c1F [Example 103]"
  MKK4 [% Ctrl @ 100 nM: "+ (3 ≤ PoC < 30)"

These data points were gathered from patent US11912701B2.
